Target: rat nNOS (Rattus norvegicus, UniProt P29476)
Construct: made in house; host or cells: E. coli (plasmid pCWnNOS)
Experiment: NOS enzyme inhibitory assay (hemoglobin capture), nNOS
Assay type: biochemical
Conditions: Table 1a; apparent Ki calculated from IC50, Km […]; read-out: calc. Ki nNOS
Experimental: All of the NOS isoforms used were recombinant enzymes overexpressed in E. coli from different sources. Nitric oxide formation from NOS was monitored by the hemoglobin capture assay as described in the literature. After approximately 48 h of post-induction incubation in the dark at 25° C. the cells were pelleted at 5300×g, transferred to 50 mL conical tubes, and stored at −80° C. […] Nitric oxide formation from NOS was monitored by the hemoglobin capture assay as described previously. […]
quantityMeasured: Ki (µM)
Kindly provide the numeric value in µM only, without the unit symbol.

Solved cases (3 shown):
Cl.Cl.Cl.Cl.NCCNC1CC(N)CC1Cc1cccc(N)n1 (racemic) [Compound P-45]	4.61
Cl.Cl.Cl.Nc1cccc(C[C@H]2CN(Cc3ccccc3)C[C@@H]2NCCCc2ccccc2)n1 (racemic)	14
Cl.Cl.Cl.Cl.Nc1cccc(C[C@@H]2CNC[C@H]2NC[C@H]2CCCN2)n1	12.3

[in] I would be grateful if you could share the reported Ki for Nc1cccc(CC2CNCC2NC2CCNC2)n1 (racemic) [Compound P-35] .
[out] 1.36

###

This section presents compounds with their documented pKi values.
biological target: murine iNOS (Mus musculus, UniProt P29477); construct: made in house; host or cells: E. coli (plasmid pCWiNOS); assay: NOS enzyme inhibitory assay (hemoglobin capture), iNOS; format: biochemical; conditions: Table 1b; read-out: Ki iNOS
Entry type: numeric. Quantity: pKi, the -log10 of concentration in molar units.

Cc1cc(N)nc(C[C@H]2CNC[C@@H]2NCCNCc2ccc(Cl)cc2Cl)c1.Cl.Cl.Cl.Cl (racemic)	4.35

[in] Need pKi, item Cc1cc(N)nc(C[C@H]2CNC[C@H]2OCCNC(=O)Cc2cccc(F)c2)c1.Cl.Cl (racemic) [Compound P-80, dihydrochloride]
[out] 4.72

[in] Field request: pKi | item: Cc1cc(N)nc(C[C@H]2CNC[C@@H]2NCCNCCc2ccc(F)cc2)c1.Cl.Cl.Cl.Cl (racemic)
[out] 4.65

[in] Given the entry Cc1cccc(CNCCN[C@@H]2CNC[C@@H]2Cc2cc(C)cc(N)n2)c1.Cl.Cl.Cl.Cl (racemic) , report its measured pKi.
[out] 5.05

[in] Give its pKi value. Item: Cc1cc(N)nc(CC2CNCC2NCCNCc2cccc(C(F)(F)F)c2)c1.Cl.Cl.Cl.Cl (racemic) [Compound P-52]
[out] 4.87

###

target: murine iNOS (Mus musculus); construct: made in house; host or cells: E. coli (plasmid pCWiNOS); experiment: NOS enzyme inhibitory assay (hemoglobin capture), iNOS; format: biochemical; details: Table 1a; apparent Ki calculated from IC50, Km […]; read-out: calc. Ki iNOS
quantityMeasured: Ki (µM)
Numbers only here, please. The scale is µM.

# annotated cases, reported Ki shown
Cc1cc(N)nc(C[C@H]2CNC[C@@H]2NCCN)c1.Cl.Cl.Cl.Cl (racemic) [Compound P-47]	32
Nc1cccc(CC2CNCC2NCC(N)Cc2ccccc2)n1 (racemic) [Compound P-31]	238
Cl.Cl.Cl.Nc1cccc(C[C@H]2CN(Cc3ccccc3)C[C@@H]2NCCCc2ccccc2)n1 (racemic) [Compound P-2]	60.1
NCCN1CC(Cc2cccc(N)n2)C(NCCCO)C1 (racemic) [Compound P-8]	652
Cl.Cl.Cl.Cl.Nc1cccc(CC2CNCC2NCC2CCCN2)n1 (stereo not shown) [Compound P-40]	82.4

[in] Query the reported Ki for murine iNOS (Mus musculus); item: Nc1cccc(C[C@H]2CNC[C@H]2NCCNCc2ccccc2)n1 (racemic) [Compound P-33]
[out] 161

[in] API: value(readout=Ki, system=murine iNOS (Mus musculus)) for record Cl.Cl.Cl.Cl.NCCN1CC(Cc2cccc(N)n2)C(NCCCc2ccccc2)C1 (racemic) [Compound P-9]
[out] 295

###

biological target: rat nNOS (Rattus norvegicus, UniProt P29476); construct: made in house; host or cells: E. coli (plasmid pCWnNOS); assay: NOS enzyme inhibitory assay (hemoglobin capture), nNOS; assay type: biochemical; settings: Table 1a; Ki(iNOS)/Ki(nNOS)
Kind request: treat 10 as inclusive, so Selectivity n/i at 10 or higher is 1, anything lower is -1.

# example entries with known answers
Nc1cccc(CC2CNCC2NCC(N)Cc2ccccc2)n1 (racemic) [Compound P-16]	1
Nc1cccc(CC2CNCC2NC2CCN(Cc3ccccc3)C2)n1 (racemic) [Compound P-22]	1
Cl.Cl.Cl.Cl.NCCNC1CC(N)CC1Cc1cccc(N)n1 (racemic) [Compound P-44]	1
Nc1cccc(CC2CNCC2NC2CCN(Cc3ccccc3)C2)n1 (stereo not shown) [Compound P-38]	1
CN(C)CCNC1CNCC1Cc1cccc(N)n1 (racemic) [Compound P-30]	1

[in] Is reported Selectivity n/i greater than or equal to 10 here: "Cl.Cl.Cl.Cl.Nc1cccc(C[C@@H]2CNC[C@H]2NC[C@H]2CCCN2)n1"
[out] 1

[in] # check: Selectivity n/i of Nc1cccc(CC2CNCC2NC2CCN(Cc3ccccc3)C2)n1 (racemic) [Compound P-21] is greater than or equal to 10
[out] 1

[in] Reported Selectivity n/i at or above 10? Cl.Cl.Cl.Nc1cccc(C[C@H]2CN(Cc3ccccc3)C[C@H]2NCCCc2ccccc2)n1 (racemic)
[out] 1

[in] Assess whether reported Selectivity n/i for Cl.Cl.Cl.Cl.Nc1cccc(CC2CNCC2NCC2CCCN2)n1 (stereo not shown) [Compound P-25] sits at 10 or higher.
[out] -1

[in] Test whether the compound Nc1cccc(C[C@H]2CNC[C@@H]2NCCNCc2ccccc2)n1 (racemic) records Selectivity n/i of 10 or higher.
[out] 1

[in] Selectivity n/i >= 10 for CN(C)CCNC1CNCC1Cc1cccc(N)n1 (racemic) [Compound P-15] ?
[out] 1

[in] Would you say Nc1cccc(CC2CNCC2NC2CCN(Cc3ccccc3)C2)n1 (stereo not shown) [Compound P-36] shows Selectivity n/i at minimum 10?
[out] 1

[in] Reported Selectivity n/i at or above 10? "Cl.Cl.Cl.Cl.Nc1cccc(C[C@@H]2CNC[C@@H]2NC[C@@H]2CCCN2)n1"
[out] -1

[in] Quick check: does Cl.Cl.Cl.Cl.NCCNC1CC(N)CC1Cc1cccc(N)n1 (racemic) [Compound P-45] have Selectivity n/i greater than or equal to 10?
[out] 1

[in] Is Selectivity n/i for Nc1cccc(CC2CNCC2NC2CCNC2)n1 (racemic) [Compound P-35] at or above 10?
[out] 1

[in] Please check the record Cc1cc(N)nc(C[C@H]2CNC[C@@H]2NCCN)c1.Cl.Cl.Cl.Cl (racemic) and state if its Selectivity n/i is at or above 10.
[out] 1

[in] For this compound, is measured Selectivity n/i 10 or higher? Cl.Cl.Nc1cccc(CC2CNCC2O)n1 (racemic)
[out] -1

[in] Does the reported Selectivity n/i for Cl.Cl.Cl.Cl.Nc1cccc(CC2CNCC2NCC2CCCN2)n1 (stereo not shown) [Compound P-23] fall at or above the 10 mark?
[out] -1

###

target: murine iNOS (Mus musculus); construct: made in house; host or cells: E. coli (plasmid pCWiNOS); experiment: NOS enzyme inhibitory assay (hemoglobin capture), iNOS; type: biochemical; conditions: Table 1a; murine iNOS; 10 μM L-arginine
// classify: if (IC50 < 400 µM) TRUE else FALSE

Below are worked cases with known answers.
Nc1cccc(CC2CNCC2NC2CCNC2)n1 (racemic) [Compound P-34]	TRUE
CN(C)CCNC1CNCC1Cc1cccc(N)n1 (racemic) [Compound P-30]	FALSE
Cl.Cl.Cl.Nc1cccc(C[C@H]2CN(Cc3ccccc3)C[C@@H]2NCCCc2ccccc2)n1 (racemic)	TRUE

[in] Given the entry Cl.Cl.Cl.Cl.NCCN1CC(Cc2cccc(N)n2)C(NCCCc2ccccc2)C1 (racemic) [Compound P-7] , would its reported IC50 be below 400 µM?
[out] FALSE

[in] Answer whether the compound Nc1cccc(CC2CNCC2NCC(N)Cc2ccccc2)n1 (racemic) [Compound P-32] has IC50 strictly less than 400 µM
[out] FALSE

###

Observed IC50, system bovine eNOS (Bos taurus, UniProt P29473).
Answer format: numeric, µM implied, no suffix.

Previously resolved entries follow.
Nc1cccc(CC2CNCC2NC2CCN(Cc3ccccc3)C2)n1 (centres unmarked) [Compound P-39]	638
Nc1cccc(CC2CNCC2NC2CCN(Cc3ccccc3)C2)n1 (centres unmarked) [Compound P-38]	1250

[in] Enter reported IC50 observed with bovine eNOS (Bos taurus, UniProt P29473) for CN(C)CCNC1CNCC1Cc1cccc(N)n1 (racemic) [Compound P-15]
[out] 1660

[in] Please state recorded IC50 (tested on bovine eNOS (Bos taurus, UniProt P29473)) of Nc1cccc(CC2CNCC2NC2CCNC2)n1 (racemic) [Compound P-34]
[out] 1670

[in] Fill in the recorded IC50 for this compound, with bovine eNOS (Bos taurus, UniProt P29473) as test system: CN(C)CCNC1CNCC1Cc1cccc(N)n1 (racemic) [Compound P-30]
[out] 963

[in] // fetch bovine eNOS (Bos taurus, UniProt P29473) IC50 for Cc1cc(N)nc(C[C@H]2CNC[C@H]2NCCN)c1.Cl.Cl.Cl.Cl (racemic) [Compound P-46]
[out] 1610

[in] Form field: IC50 recorded for Nc1cccc(CC2CNCC2NC2CCNC2)n1 (racemic) [Compound P-19] with bovine eNOS (Bos taurus, UniProt P29473) (enter value)
[out] 3170

Numbers sourced from patent US7994326B2.
